Quick list: pIC50 per entry.
- assay_system: Transient receptor potential cation channel subfamily V member 1 (Rattus norvegicus, UniProt O35433)
- Sequence (O35433 whole entry): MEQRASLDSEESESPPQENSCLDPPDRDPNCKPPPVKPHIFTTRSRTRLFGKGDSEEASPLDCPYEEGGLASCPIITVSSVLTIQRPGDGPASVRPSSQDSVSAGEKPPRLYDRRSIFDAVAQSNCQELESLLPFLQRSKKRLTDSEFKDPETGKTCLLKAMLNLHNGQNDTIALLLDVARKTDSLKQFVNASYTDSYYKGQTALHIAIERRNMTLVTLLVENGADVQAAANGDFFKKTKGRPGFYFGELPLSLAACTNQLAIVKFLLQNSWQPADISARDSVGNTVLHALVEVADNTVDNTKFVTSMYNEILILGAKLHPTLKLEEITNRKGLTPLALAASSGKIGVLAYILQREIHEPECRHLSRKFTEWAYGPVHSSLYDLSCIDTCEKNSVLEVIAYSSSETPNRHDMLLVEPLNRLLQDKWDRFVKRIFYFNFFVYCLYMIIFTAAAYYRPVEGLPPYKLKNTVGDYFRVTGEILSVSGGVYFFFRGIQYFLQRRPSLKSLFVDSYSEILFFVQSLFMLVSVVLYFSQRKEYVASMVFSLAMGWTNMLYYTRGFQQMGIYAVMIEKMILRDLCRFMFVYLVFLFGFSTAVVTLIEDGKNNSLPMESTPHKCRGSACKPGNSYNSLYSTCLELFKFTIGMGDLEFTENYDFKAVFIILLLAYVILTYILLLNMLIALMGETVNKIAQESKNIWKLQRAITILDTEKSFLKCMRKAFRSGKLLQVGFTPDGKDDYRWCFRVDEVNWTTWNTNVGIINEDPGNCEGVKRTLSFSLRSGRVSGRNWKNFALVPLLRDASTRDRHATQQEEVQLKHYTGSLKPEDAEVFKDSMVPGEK
- measurement_protocol: Antagonist activity against low pH(5.0-5.5)-activated rat VR1
Here pIC50 is given on a logarithmic scale as minus log10 of the concentration in mol/L.

// known answers, use as guide
test_smiles	pIC50
N#Cc1ccc(NC(=O)c2ccc(-c3ncccc3C(F)(F)F)cc2)cc1	5.89
Cc1nc(-c2ncccc2C(F)(F)F)ccc1C(=O)Nc1ccc(C(F)(F)F)cc1	6.58

Q: If you can, please state the reported pIC50 value of `CC(C)(C)c1ccc(NC(=O)c2ccc(-c3ncccc3C(F)(F)F)cc2)cc1` .
Result: 8.40

Q: If you can, please state the reported pIC50 value of `Cc1cccnc1-c1ccc(C(=O)Nc2ccc(Cl)cc2)cc1` .
Result: 5.69

Q: If you can, please state the reported pIC50 value of `Cc1cc(C(=O)Nc2ccc(C(F)(F)F)cc2)ccc1-c1ncccc1C(F)(F)F` .
Result: 6.72

Q: If you can, please state the reported pIC50 value of `CN(c1cccnc1-c1ccc(C(=O)Nc2ccc(C(C)(C)C)cc2)cc1)S(C)(=O)=O` .
Result: 8.05

Q: If you can, please state the reported pIC50 value of `Cc1cccnc1-c1ccc(C(=O)Nc2ccc(C(F)(F)F)cc2)cc1` .
Result: 7.09

Q: If you can, please state the reported pIC50 value of `CCCNc1cccnc1-c1ccc(C(=O)Nc2ccc(C(C)(C)C)cc2)cc1` .
Result: 7.43

Q: If you can, please state the reported pIC50 value of `Cc1cc(C(=O)Nc2ccc(C(F)(F)F)cc2)ccc1-c1ncccc1C` .
Result: 6.72

* * *

- measurement_protocol: Tmax in rat at 3 mg/kg, iv
- Format: ADME, organism-based
- Parameters: dose 3 mg/kg, route intravenous
- experimental_parameters: in vivo
Quick list: Tmax per entry.
Give the value in min but do not write min after it.

compound	Tmax, min
FC(F)(F)c1ccc(Nc2ncnc3cc(-c4ncccc4C(F)(F)F)ccc23)cc1 [NGD-8243]	42

Moving on to another compound below.
Q: If you can, please state the reported Tmax value of `C[C@@H]1CN(c2ncccc2C(F)(F)F)CCN1C(=O)Nc1ccc(C(F)(F)F)cc1` .
Result: 30

* * *

- assay_system: Transient receptor potential cation channel subfamily V member 1 (Homo sapiens, UniProt Q8NER1)
- Sequence (Q8NER1 whole entry): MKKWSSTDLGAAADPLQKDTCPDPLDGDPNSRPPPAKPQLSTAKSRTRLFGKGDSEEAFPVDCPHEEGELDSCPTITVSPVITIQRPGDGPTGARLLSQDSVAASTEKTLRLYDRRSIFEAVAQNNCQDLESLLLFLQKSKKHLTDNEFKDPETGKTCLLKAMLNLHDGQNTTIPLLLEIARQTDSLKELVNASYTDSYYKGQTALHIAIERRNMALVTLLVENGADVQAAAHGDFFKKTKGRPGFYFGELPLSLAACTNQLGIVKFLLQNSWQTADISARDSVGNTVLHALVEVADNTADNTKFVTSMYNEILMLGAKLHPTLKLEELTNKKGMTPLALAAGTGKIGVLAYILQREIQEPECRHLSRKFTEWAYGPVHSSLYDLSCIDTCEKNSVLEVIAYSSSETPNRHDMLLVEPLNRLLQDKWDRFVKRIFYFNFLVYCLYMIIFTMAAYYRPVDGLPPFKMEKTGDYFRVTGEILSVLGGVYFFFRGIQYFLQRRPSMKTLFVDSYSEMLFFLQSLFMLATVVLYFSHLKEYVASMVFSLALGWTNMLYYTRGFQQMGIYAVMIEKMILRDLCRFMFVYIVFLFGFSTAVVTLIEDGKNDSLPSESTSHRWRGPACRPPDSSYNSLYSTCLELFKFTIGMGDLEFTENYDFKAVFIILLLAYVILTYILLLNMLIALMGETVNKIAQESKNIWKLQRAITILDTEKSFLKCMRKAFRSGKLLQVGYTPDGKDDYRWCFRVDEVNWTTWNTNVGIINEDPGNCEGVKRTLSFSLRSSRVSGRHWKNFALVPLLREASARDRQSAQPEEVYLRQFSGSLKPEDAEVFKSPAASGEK
- measurement_protocol: Antagonist activity against capsaicin-activated human VR1 by FLIPR assay
metric: IC50 (nM)
Give the value in nM but do not write nM after it.

test_smiles	IC50, nM
CS(=O)(=O)Nc1cc(-c2ncccc2C(F)(F)F)ccc1C(=O)Nc1ccc(C(F)(F)F)cc1	1020
O=C(Nc1ccc(C(F)(F)F)cn1)c1ccc(-c2ncccc2C(F)(F)F)cc1	24

Moving on to another molecule below.
Q: If you can, please state the reported IC50 value of `CC(C)(C)c1ccc(NC(=O)c2ccc(-c3ncccc3NS(=O)(=O)c3ccccc3)cc2)cc1` .
Result: 91

* * *

- assay_system: Transient receptor potential cation channel subfamily V member 1 (Rattus norvegicus, UniProt O35433)
- measurement_protocol: Antagonist activity against low pH(5.0-5.5)-activated rat VR1
Quick list: pIC50 per entry.
Here pIC50 is given on a logarithmic scale as minus log10 of the concentration in mol/L.

// known answers, use as guide
molecule	metric	numeric_result
CC(C)(C)c1ccc(NC(=O)c2ccc(-c3ncccc3N)cc2)cc1	pIC50	6.49
CC(C)(C)c1ccc(NC(=O)c2ccc(-c3ncccc3NS(=O)(=O)c3ccccc3)cc2)cc1	pIC50	6.78
CCCNCc1cccnc1-c1ccc(C(=O)Nc2ccc(C(C)(C)C)cc2)cc1	pIC50	6.19
Cc1cccnc1-c1ccc(C(=O)Nc2ccc(C(F)(F)F)cc2)cn1	pIC50	6.23
CC(C)(C)c1ccc(NC(=O)c2ccc(-c3ncccc3C#N)cc2)cc1	pIC50	7.89
CC(C)(C)c1ccc(NC(=O)c2ccc(-c3ncccc3C(=O)O)cc2)cc1	pIC50	6.25

Q: If you can, please state the reported pIC50 value of `C[C@@H]1CN(c2ncccc2C(F)(F)F)CCN1C(=O)Nc1ccc(C(F)(F)F)cc1` .
Result: 7.96

Q: If you can, please state the reported pIC50 value of `O=C(Nc1ccc(C(F)(F)F)cn1)c1ccc(-c2ncccc2C(F)(F)F)cc1` .
Result: 7.19

Q: If you can, please state the reported pIC50 value of `CC(C)(C)c1ccc(NC(=O)c2ccc(-c3ncccc3-c3nnco3)cc2)cc1` .
Result: 7.23

* * *

- assay_system: Transient receptor potential cation channel subfamily V member 1 (Homo sapiens)
- measurement_protocol: Antagonist activity against capsaicin-activated human VR1 by FLIPR assay
metric: pIC50
Here pIC50 is given on a logarithmic scale as minus log10 of the concentration in mol/L.

Q: If you can, please state the reported pIC50 value of `CC(C)(C)c1ccc(NC(=O)c2ccc(-c3ccccn3)cc2)cc1` .
Result: 7.96

Q: If you can, please state the reported pIC50 value of `Cc1cc(C(=O)Nc2ccc(C(F)(F)F)cc2)ccc1-c1ncccc1C` .
Result: 6.63

* * *

- assay_system: Transient receptor potential cation channel subfamily V member 1 (Homo sapiens, UniProt Q8NER1)
- measurement_protocol: Antagonist activity against capsaicin-activated human VR1 by FLIPR assay
pIC50: −log10 of the molar value.
// label = Condition met if pIC50 is not less than 7, otherwise Condition not met

Solved cases (10 shown):
test_smiles	discrete_label
Cc1cccnc1-c1ccc(C(=O)Nc2ccc(C(F)(F)F)cc2)cn1	Condition not met
CN(c1cccnc1-c1ccc(C(=O)Nc2ccc(C(C)(C)C)cc2)cc1)S(C)(=O)=O	Condition met
Cc1nnc(-c2cccnc2-c2ccc(C(=O)Nc3ccc(C(C)(C)C)cc3)cc2)o1	Condition not met
CC(C)(C)c1ccc(NC(=O)c2ccc(-c3ncccc3C#N)cc2)cc1	Condition met
CC(=O)Nc1cccnc1-c1ccc(C(=O)Nc2ccc(C(C)(C)C)cc2)cc1	Condition not met
CCCNCc1cccnc1-c1ccc(C(=O)Nc2ccc(C(C)(C)C)cc2)cc1	Condition not met
O=C(Nc1ccc(C(F)(F)F)cc1)c1ccc(-c2ncccc2C(F)(F)F)cc1O	Condition met
Cc1cc(-c2ncccc2C)ccc1C(=O)Nc1ccc(C(F)(F)F)cc1	Condition not met
CS(=O)(=O)N(c1cc(-c2ncccc2C(F)(F)F)ccc1C(=O)Nc1ccc(C(F)(F)F)cc1)S(C)(=O)=O	Condition not met
Cc1cccnc1-c1ccc(C(=O)Nc2ccccn2)cc1	Condition not met

Q: Reported pIC50 reaches at least 7 for `CC(C)(C)c1ccc(NC(=O)c2ccc(-c3ncccc3-c3nnn[nH]3)cc2)cc1` ?
Result: Condition not met

Q: Reported pIC50 reaches at least 7 for `COc1ccc(NC(=O)c2ccc(-c3ncccc3C)cc2)cc1` ?
Result: Condition not met

* * *

- assay_system: Transient receptor potential cation channel subfamily V member 1 (Rattus norvegicus)
- measurement_protocol: Antagonist activity against low pH(5.0-5.5)-activated rat VR1
pIC50: −log10 of the molar value.
Response field class: enum, chosen by comparing pIC50 against lo = under 7, med = from 7 up to 8, hi = 8 and over

Solved cases (8 shown):
test_smiles	assay_system	discrete_label
CC(C)(C)c1ccc(NC(=O)c2ccc(-c3ncccc3-c3nnn[nH]3)cc2)cc1	Transient receptor potential cation channel subfamily V member 1 (Rattus norvegicus)	lo
O=C(Nc1ccc(C(F)(F)F)cc1)c1ncc(-c2ncccc2C(F)(F)F)cn1	Transient receptor potential cation channel subfamily V member 1 (Rattus norvegicus)	med
CC(C)(C)c1ccc(NC(=O)c2ccc(-c3ncccc3-c3ncc[nH]3)cc2)cc1	Transient receptor potential cation channel subfamily V member 1 (Rattus norvegicus)	lo
O=C(Nc1ccc(C(F)(F)F)cc1)c1ccc(-c2ncccc2C(F)(F)F)cc1	Transient receptor potential cation channel subfamily V member 1 (Rattus norvegicus)	med
Cc1cccnc1-c1ccc(C(=O)Nc2ccc(C(C)C)cc2)cc1	Transient receptor potential cation channel subfamily V member 1 (Rattus norvegicus)	med
CC(C)(C)c1ccc(NC(=O)c2ccc(-c3ncccc3[N+](=O)[O-])cc2)cc1	Transient receptor potential cation channel subfamily V member 1 (Rattus norvegicus)	hi
CC(C)(C)c1ccc(NC(=O)c2ccc(-c3ncccc3Cl)cc2)cc1	Transient receptor potential cation channel subfamily V member 1 (Rattus norvegicus)	hi
CS(=O)(=O)N(c1cc(-c2ncccc2C(F)(F)F)ccc1C(=O)Nc1ccc(C(F)(F)F)cc1)S(C)(=O)=O	Transient receptor potential cation channel subfamily V member 1 (Rattus norvegicus)	lo

Q: Category of `Cc1cccnc1-c1ccc(C(=O)Nc2ccc(C(F)(F)F)cc2)nc1` , please.
Result: lo

Q: Category of `CC(C)(C)c1ccc(NC(=O)c2ccc(-c3ncccc3F)cc2)cc1` , please.
Result: hi

* * *

- assay_system: Transient receptor potential cation channel subfamily V member 1 (Rattus norvegicus)
- measurement_protocol: Antagonist activity against low pH(5.0-5.5)-activated rat VR1
metric: pIC50
Here pIC50 is given on a logarithmic scale as minus log10 of the concentration in mol/L.

// known answers, use as guide
test_smiles	metric	numeric_result
CC(C)(C)c1ccc(NC(=O)c2ccc(-c3ncccc3NS(=O)(=O)Cc3ccccc3)cc2)cc1	pIC50	6.80
Cc1nnc(-c2cccnc2-c2ccc(C(=O)Nc3ccc(C(C)(C)C)cc3)cc2)o1	pIC50	7.47
CC(C)(C)c1ccc(NC(=O)c2ccc(-c3ncccc3NS(C)(=O)=O)cc2)cc1	pIC50	7.46
O=C(Nc1ccc(C(F)(F)F)cc1)c1ccc(-c2ncccc2C(F)(F)F)cc1[N+](=O)[O-]	pIC50	6.65
O=C(Nc1ccc(C(F)(F)F)cc1)c1ccc(-c2ncccc2C(F)(F)F)cc1Cl	pIC50	5.62

Moving on to another compound below.
Q: If you can, please state the reported pIC50 value of `FC(F)(F)c1ccc(Nc2ncnc3cc(-c4ncccc4C(F)(F)F)ccc23)cc1` .
Result: 8.85
